# credit: patent US20040077664A1

Counter-ions that a name gives are not always drawn.
quantityName: melting point (°C)

compound: COc1ccc(CNc2nc(CCC(=O)O)nc3sc4c(c23)CCCC4)cc1Cl [Example 2 (formula I-I)]
quantityName: melting point
measurementUnits: °C
assayValue: 229
--
compound: CCCc1nn(C)c2c(NCc3ccc(OC)c(Cl)c3)nc(CCC(=O)O)nc12
quantityName: melting point
measurementUnits: °C
assayValue: 178

P. COc1ccc(CNc2nc(CCC(=O)O)nc3sc4c(c23)CCCC4)cc1Cl (as salt: salt) [Example 2 (formula I-I)]
Q. COc1ccc(CNc2nc(CCC(=O)O)nc3sc4ccccc4c23)cc1Cl
# input I would appreciate it if you could say which entry, P or Q , has the lower melting point value. Please reply using the label of the selected record.
# output P
